Where these numbers come from: paper PMC7994712

Target: Somatostatin receptor 5 (SSTR5) (human), P35346
Sequence (P35346 whole entry): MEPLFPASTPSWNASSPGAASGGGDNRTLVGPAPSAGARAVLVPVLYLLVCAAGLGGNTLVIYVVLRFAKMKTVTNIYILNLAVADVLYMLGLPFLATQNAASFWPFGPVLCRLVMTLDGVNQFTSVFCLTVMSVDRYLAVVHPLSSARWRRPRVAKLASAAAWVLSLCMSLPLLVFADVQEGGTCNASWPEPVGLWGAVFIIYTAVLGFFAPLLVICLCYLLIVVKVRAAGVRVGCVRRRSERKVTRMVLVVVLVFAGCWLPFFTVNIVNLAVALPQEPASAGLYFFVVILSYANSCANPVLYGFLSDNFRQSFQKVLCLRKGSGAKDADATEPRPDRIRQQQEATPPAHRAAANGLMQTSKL
Conditions: N-octanoyl amide on the N-terminal residue; L-mesityl alanine (Msa) at position 6; D-Trp at position 7; disulfide bridge between the two cysteines
measurement-name: IC50

INSERT INTO results (binder, measurement_name, reported_measurement) VALUES
  ('PCKNFFWKTFTSCK [Cortistatin analogue 3]', 'IC50', '> 300 nM');
